Measured MMAE Plasma, listed per entry.
- protocol-notes: H524 tumor biodistribution model: tumor and plasma levels of SMDC and MMAE by LC/MS-MS
- Format: in vivo, female Athymic nude mice
- run-conditions: MMAE level 4 h after 500 nmol/kg IV of the conjugate, H524 tumor bearing nude mice
observable: MMAE Plasma (nM)

[[record]]
compound_string = "CC[C@H](C)[C@@H]([C@@H](CC(=O)N1CCC[C@H]1[C@H](OC)[C@@H](C)C(=O)N[C@H](C)[C@@H](O)c1ccccc1)OC)N(C)C(=O)[C@@H](NC(=O)[C@H](C(C)C)N(C)C(=O)OCc1ccc(NC(=O)[C@H](CCCNC(N)=O)NC(=O)[C@@H](NC(=O)[C@@H](CS(=O)(=O)O)NC(=O)CCOCCC(=O)NCCNc2ncc(-c3cc(C)cc(F)c3)c(N3CCC(N)CC3)c2-c2nc3ccc(Cl)cc3[nH]2)C(C)C)cc1C(=O)NCCN)C(C)C"
observable = "MMAE Plasma"
meas_value = 2.26

[[record]]
compound_string = "CC[C@H](C)[C@@H]([C@@H](CC(=O)N1CCC[C@H]1[C@H](OC)[C@@H](C)C(=O)N[C@H](C)[C@@H](O)c1ccccc1)OC)N(C)C(=O)[C@@H](NC(=O)[C@H](C(C)C)N(C)C(=O)OCc1ccc(NC(=O)[C@H](CCCNC(N)=O)NC(=O)[C@@H](NC(=O)CCOCCC(=O)NCCNc2ncc(-c3cc(C)cc(F)c3)c(N3CCC(N)CC3)c2-c2nc3ccc(Cl)cc3[nH]2)C(C)C)c(O[C@@H]2O[C@H](C(=O)O)[C@@H](O)[C@H](O)[C@H]2O)c1)C(C)C"
observable = "MMAE Plasma"
meas_value = 0.754

[[record]]
compound_string = "CC[C@H](C)[C@@H]([C@@H](CC(=O)N1CCC[C@H]1[C@H](OC)[C@@H](C)C(=O)N[C@H](C)[C@@H](O)c1ccccc1)OC)N(C)C(=O)[C@@H](NC(=O)[C@H](C(C)C)N(C)C(=O)OCc1ccc(NC(=O)[C@H](C)NC(=O)[C@@H](NC(=O)CCOCCC(=O)NCCNc2ncc(-c3cc(C)cc(F)c3)c(N3CCC(N)CC3)c2-c2nc3ccc(Cl)cc3[nH]2)C(C)C)c(O[C@@H]2O[C@H](C(=O)O)[C@@H](O)[C@H](O)[C@H]2O)c1)C(C)C"
observable = "MMAE Plasma"
meas_value = 1.94

[[record]]
compound_string = "CC[C@H](C)[C@@H]([C@@H](CC(=O)N1CCC[C@H]1[C@H](OC)[C@@H](C)C(=O)N[C@H](C)[C@@H](O)c1ccccc1)OC)N(C)C(=O)[C@@H](NC(=O)[C@H](C(C)C)N(C)C(=O)OCc1ccc(NC(=O)[C@H](CCCNC(N)=O)NC(=O)[C@@H](NC(=O)[C@H](CCC(=O)O)NC(=O)CCOCCC(=O)NCCNc2ncc(-c3cc(C)cc(F)c3)c(N3CCC(N)CC3)c2-c2nc3ccc(Cl)cc3[nH]2)C(C)C)cc1C(=O)NCCN)C(C)C"
observable = "MMAE Plasma"
meas_value = 1.36


###

Measured EC50, listed per entry.
- assayed-system: human somatostatin receptor subtype 2 (Homo sapiens)
- Construct: expressed in transfected cells
- Sequence (P30874 whole entry): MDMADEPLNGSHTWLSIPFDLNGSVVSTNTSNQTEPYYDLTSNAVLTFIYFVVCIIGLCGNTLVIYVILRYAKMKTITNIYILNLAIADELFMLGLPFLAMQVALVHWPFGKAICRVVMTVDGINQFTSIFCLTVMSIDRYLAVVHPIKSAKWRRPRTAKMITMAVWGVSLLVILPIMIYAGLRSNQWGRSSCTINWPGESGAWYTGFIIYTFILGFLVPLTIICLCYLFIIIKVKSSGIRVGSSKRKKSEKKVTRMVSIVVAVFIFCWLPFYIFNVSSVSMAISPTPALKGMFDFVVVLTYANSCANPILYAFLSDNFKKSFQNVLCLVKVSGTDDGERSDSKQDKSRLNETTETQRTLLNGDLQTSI
- protocol-notes: Functional cAMP assay for SSTR2 agonists (HTRF) in CHO-K1 cells
- Format: cell-based
- run-conditions: hSST2 cAMP Avg EC50 (nM), CHO-K1 cells stably expressing human SST2, 20 min
observable: EC50

[[record]]
compound = "CC[C@@]1(O)C(=O)OCc2c1cc1n(c2=O)Cc2c-1nc1cc(F)c(C)c3c1c2[C@@H](NC(=O)OCc1ccc(NC(=O)[C@H](CCCNC(N)=O)NC(=O)[C@@H](NC(=O)[C@H](CCC(=O)O)NC(=O)CCOCCC(=O)NCCNc2ncc(-c4cc(C)cc(F)c4)c(N4CCC(N)CC4)c2-c2nc4ccc(Cl)cc4[nH]2)C(C)C)cc1)CC3"
assayed_system = "human somatostatin receptor subtype 2 (Homo sapiens)"
meas_value = "0.29 nM"

[[record]]
compound = "CC[C@@]1(O)C(=O)OCc2c1cc1n(c2=O)Cc2c-1nc1cc(F)c(C)c3c1c2[C@@H](NC(=O)CCOCCC(=O)NCCNc1ncc(-c2cc(C)cc(F)c2)c(N2CCC(N)CC2)c1-c1nc2ccc(Cl)cc2[nH]1)CC3"
assayed_system = "human somatostatin receptor subtype 2 (Homo sapiens)"
meas_value = "0.23 nM"

[[record]]
compound = "CC[C@@]1(O)C(=O)OCc2c1cc1n(c2=O)Cc2c-1nc1cc(F)c(C)c3c1c2[C@@H](NC(=O)OCc1ccc(NC(=O)[C@H](CCCNC(N)=O)NC(=O)[C@@H](NC(=O)CCOCCOCCOCCOCCC(=O)NCCNc2ncc(-c4cc(C)cc(F)c4)c(N4CCC(N)CC4)c2-c2nc4ccc(Cl)cc4[nH]2)C(C)C)c(O[C@@H]2O[C@H](C(=O)O)[C@@H](O)[C@H](O)[C@H]2O)c1)CC3 [Compound 127]"
assayed_system = "human somatostatin receptor subtype 2 (Homo sapiens)"
meas_value = "0.26 nM"

[[record]]
compound = "CC[C@@]1(O)C(=O)OCc2c1cc1n(c2=O)Cc2c-1nc1cc(F)c(C)c3c1c2[C@@H](NC(=O)OCc1ccc(NC(=O)[C@H](CCCNC(N)=O)NC(=O)[C@@H](NC(=O)CCOCCC(=O)NCCNc2ncc(-c4cc(C)cc(F)c4)c(N4CCC(N)CC4)c2-c2nc4ccc(Cl)cc4[nH]2)C(C)C)c(O[C@@H]2O[C@H](C(=O)O)[C@@H](O)[C@H](O)[C@H]2O)c1)CC3 [Compound 126]"
assayed_system = "human somatostatin receptor subtype 2 (Homo sapiens)"
meas_value = "0.29 nM"


###

- assayed-system: SST2 (Homo sapiens)
- Construct: host or cells: PathHunter CHO-K1 SST2 cells
- Sequence (P30874 whole entry): as above
- protocol-notes: PathHunter CHO-K1 SST2 internalization assay
- Format: cell-based
- run-conditions: PathHunter CHO-K1 SST2, 90 min; read-out: Internalization EC50
Starred links: 1 amine or outer side, 2 acyl side, 3 side chain; linkers in the order of their positions; H or OH if unused. Non-standard residues stand in square brackets, D forms with d. Residues, ends and D or L forms follow the SMILES beside them. *: point of attachment. X3 = Cc1cc(F)cc(-c2cnc(NCCN*)c(-c3nc4ccc(Cl)cc4[nH]3)c2N2CCC(N)CC2)c1; Dolaproine = CO[C@@H]([C@@H]1CCCN1)[C@@H](C)C(=O)O; Dil = CC[C@H](C)[C@H](NC)[C@@H](CC(=O)O)OC; PABC = O=C(OCc1ccc(N[*:1])cc1)[*:2]; Glutaryl = O=C(CCCC(=O)[*:2])[*:1]; X2 = C[C@@H](N*)[C@@H](O)c1ccccc1; Cit = NC(=O)NCCC[C@H](N)C(=O)O; NMeV = CN[C@H](C(=O)O)C(C)C; Sar = CNCC(=O)O
Measured EC50, listed per entry.
observable: EC50 (nM)

[[record]]
molecule = "CC[C@H](C)[C@@H]([C@@H](CC(=O)N1CCC[C@H]1[C@H](OC)[C@@H](C)C(=O)N[C@H](C)[C@@H](O)c1ccccc1)OC)N(C)C(=O)[C@@H](NC(=O)[C@H](C(C)C)N(C)C(=O)OCc1ccc(NC(=O)[C@H](CCCNC(N)=O)NC(=O)[C@@H](NCCOCCOCCOCCOCCC(=O)NCCNc2ncc(-c3cc(C)cc(F)c3)c(N3CCC(N)CC3)c2-c2nc3ccc(Cl)cc3[nH]2)C(C)C)cc1)C(C)C"
display_unit = "nM"
meas_value = 7.8

[[record]]
molecule = "CC[C@H](C)[C@@H]([C@@H](CC(=O)N1CCC[C@H]1[C@H](OC)[C@@H](C)C(=O)N[C@H](C)[C@@H](O)c1ccccc1)OC)N(C)C(=O)[C@@H](NC(=O)[C@H](C(C)C)N(C)C(=O)OCc1ccc(NC(=O)[C@H](CCCNC(N)=O)NC(=O)[C@@H](NC(=O)CCOCCOCCOCCOCCC(=O)NCCNc2ncc(-c3cc(C)cc(F)c3)c(N3CCC(N)CC3)c2-c2nc3ccc(Cl)cc3[nH]2)C(C)C)cc1C(=O)NCCNC(=O)CCOCCOCCOCCOCCN)C(C)C"
display_unit = "nM"
meas_value = 6.9

[[record]]
molecule = "CC[C@H](C)[C@@H]([C@@H](CC(=O)N1CCC[C@H]1[C@H](OC)[C@@H](C)C(=O)N[C@H](C)[C@@H](O)c1ccccc1)OC)N(C)C(=O)[C@@H](NC(=O)[C@H](C(C)C)N(C)C(=O)OCc1ccc(NC(=O)[C@H](C)NC(=O)[C@@H](NC(=O)CCOCCC(=O)NCCNc2ncc(-c3cc(C)cc(F)c3)c(N3CCC(N)CC3)c2-c2nc3ccc(Cl)cc3[nH]2)C(C)C)cc1C(=O)NCCN)C(C)C"
display_unit = "nM"
meas_value = 15

[[record]]
molecule = "CC[C@H](C)[C@@H]([C@@H](CC(=O)N1CCC[C@H]1[C@H](OC)[C@@H](C)C(=O)N[C@H](C)[C@@H](O)c1ccccc1)OC)N(C)C(=O)[C@@H](NC(=O)[C@H](C(C)C)N(C)C(=O)OCc1ccc(NC(=O)[C@H](CCCNC(N)=O)NC(=O)[C@@H](NC(=O)CCCC(=O)N(C)CC(=O)NCCNc2ncc(-c3cc(C)cc(F)c3)c(N3CCC(N)CC3)c2-c2nc3ccc(Cl)cc3[nH]2)C(C)C)cc1)C(C)C [Compound 95] ({X3-Sar-Glutaryl}-V[Cit][PABC][NMeV]V[Dil][Dolaproine]-X2)"
display_unit = "nM"
meas_value = 2.2

[[record]]
molecule = "COc1cc2cc(c1Cl)N(C)C(=O)CC(OC(=O)[C@@H](C)N(C)C(=O)CCSSCCC(=O)NCCNc1ncc(-c3cc(C)cc(F)c3)c(N3CCC(N)CC3)c1-c1nc3ccc(Cl)cc3[nH]1)[C@]1(C)OC1[C@@H](C)C1C[C@@](O)(NC(=O)O1)[C@H](OC)/C=C/C=C(\\C)C2 (some centres unmarked)"
display_unit = "nM"
meas_value = 6.3

